Target or system Staphylococcus aureus ATCC 29213; recorded quantity MIC.
One number for each entry, in µg/mL.

// below: answered compounds
[
  {
    "compound": "COC(=O)/C=C(/C)CC[C@]1(C)[C@H]2CCC=C(C(=O)O)[C@]2(C)CC[C@@H]1C [Compound 4, (8S)-kolavic acid 15-methyl ester]",
    "targetSystem": "Staphylococcus aureus ATCC 29213",
    "MIC / µg/mL": 25
  },
  {
    "compound": "COc1c(O)c(O)cc2c1COc1c-2oc2cc(O)cc(O)c2c1=O [Compound 7, entadanin]",
    "targetSystem": "Staphylococcus aureus ATCC 29213",
    "MIC / µg/mL": 12.5
  },
  {
    "compound": "COC(=O)c1cc(O)c(O)c(O)c1 [Compound 6, methyl gallate]",
    "targetSystem": "Staphylococcus aureus ATCC 29213",
    "MIC / µg/mL": 50
  },
  {
    "compound": "CNC(C)C1CCC(N)C(OC2C(N)CC(N)C(OC3OCC(C)(O)C(NC)C3O)C2O)O1 (centres unmarked) [Gentamicin, reference compound]",
    "targetSystem": "Staphylococcus aureus ATCC 29213",
    "MIC / µg/mL": 0.5
  },
  {
    "compound": "C[C@H]1[C@H](C)CC[C@]2(C(=O)O)CC[C@]3(C)C(=CC[C@@H]4[C@@]5(C)CC[C@H](O)C(C)(C)[C@@H]5CC[C@]43C)[C@H]12 [Compound 1, ursolic acid]",
    "targetSystem": "Staphylococcus aureus ATCC 29213",
    "MIC / µg/mL": 12.5
  }
]

Lab note: next compound to report on.
Prompt: Value lookup for MIC; key = C[C@@H]1O[C@@H](Oc2c(-c3ccc(O)c(O)c3)oc3cc(O)cc(O)c3c2=O)[C@H](O)[C@H](O)[C@H]1O [Compound 2, quercetin-3-O-α-L-rhamnoside]
Response: 12.5

* * *

test: MTT cytotoxicity assay, normal cells; format: cell-based; conditions: monkey; normal Vero cells, MTT, mean ± SD; read-out: Vero LC50
experimentalEndpoint: CC50 (µg/mL)
Numbers only, in µg/mL.

Prompt: Value lookup for CC50; key = C[C@@H]1O[C@@H](Oc2c(-c3ccc(O)c(O)c3)oc3cc(O)cc(O)c3c2=O)[C@H](O)[C@H](O)[C@H]1O [Compound 2, quercetin-3-O-α-L-rhamnoside]
Response: 44.8

* * *

assay: ABTS radical assay; conditions: mean ± SD of three experiments
Marks after values point to notes of the source that are not given here.
experimentalEndpoint: ABTS (IC50)

[
  {
    "compound": "COC(=O)/C=C(/C)CC[C@]1(C)[C@H]2CCC=C(C(=O)O)[C@]2(C)CC[C@@H]1C",
    "ABTS (IC50)": "– (– 100 µg/mL)"
  },
  {
    "compound": "O=C(CCCCCCCCCCCCCCCCCCCCCCCCC(=O)OC[C@@H](O)CO)OC[C@@H](O)CO",
    "ABTS (IC50)": "– (– 100 µg/mL)"
  },
  {
    "compound": "C[C@@H]1CC[C@@]2(C)C(C(=O)O)=CCC[C@@H]2[C@@]1(C)CC(=O)O",
    "ABTS (IC50)": "– (– 100 µg/mL)"
  },
  {
    "compound": "COc1c(O)c(O)cc2c1COc1c-2oc2cc(O)cc(O)c2c1=O",
    "ABTS (IC50)": "4.13 ± 0.10^e µg/mL"
  },
  {
    "compound": "O=C1O[C@H]([C@@H](O)CO)C(O)=C1O [Ascorbic acid, reference compound]",
    "ABTS (IC50)": "4.15 ± 1.21^d,e µg/mL"
  },
  {
    "compound": "C[C@@H]1O[C@@H](Oc2c(-c3ccc(O)c(O)c3)oc3cc(O)cc(O)c3c2=O)[C@H](O)[C@H](O)[C@H]1O [Compound 2, quercetin-3-O-α-L-rhamnoside]",
    "ABTS (IC50)": "3.53 ± 0.39^b µg/mL"
  },
  {
    "compound": "COC(=O)c1cc(O)c(O)c(O)c1 [Compound 6, methyl gallate]",
    "ABTS (IC50)": "2.53 ± 0.49^d µg/mL"
  }
]

Lab note: next compound to report on.
Prompt: Value lookup for ABTS (IC50); key = Cc1c(C)c2c(c(C)c1O)CCC(C)(C(=O)O)O2 (centres unmarked) [Trolox, reference compound]
Response: 10.38 ± 2.4^a,f µg/mL
